Test system: SK-OV-3
experimental.details: Cytotoxicity against human SKOV3 cells after 48 hrs by sulforhodamine B assay
Format: functional
stated.conditions: SK-OV-3, 48 h, read-out: ED50 (the source's name)
measure.name: log10(EC50) (log10 of the value in µg/mL)
In our notation, the value equals log10 of EC50 in µg/mL.

INPUT: I have this compound here, COc1cccc2c1C(=O)c1c(O)c3c(c(O)c1C2=O)C[C@@](O)(C(=O)CO)C[C@@H]3O[C@H]1C[C@H](N)[C@H](O)[C@H](C)O1 , and I need its recorded log10(EC50).
OUTPUT: -2.52

INPUT: Further, for COC(=O)/C=C/C=C/[C@@H]1[C@@H]2CCC[C@H]2C=C[C@H]1/C=C/C=C/CCCC(=O)O ?
OUTPUT: 1.18

====

Tested on: SK-MEL-2
experimental.details: Cytotoxicity against human SK-MEL-2 cells after 48 hrs by sulforhodamine B assay
Assay type: functional
stated.conditions: SK-MEL-2, 48 h, read-out: ED50 (the source's name)
Values of EC50 strictly less than 10 µg/mL map to condition met, and values of at least 10 µg/mL map to condition not met.

compound	class.name
COc1cccc2c1C(=O)c1c(O)c3c(c(O)c1C2=O)C[C@@](O)(C(=O)CO)C[C@@H]3O[C@H]1C[C@H](N)[C@H](O)[C@H](C)O1	condition met
O=C(O)CCC/C=C/C=C/[C@@H]1C=C[C@@H]2CCC[C@H]2[C@H]1/C=C/C=C/C(=O)NCCc1ccccc1	condition not met
COC(=O)/C=C/C=C/[C@@H]1[C@@H]2CCC[C@H]2C=C[C@H]1/C=C/C=C/CCCC(=O)O	condition not met
COC(=O)/C=C/C=C/[C@@H]1[C@@H]2CCC[C@H]2C=C[C@H]1/C=C/C=C/CCCC(=O)NCCC(=O)NCCc1c[nH]c2ccccc12 [APLIDIC ACID AMIDE A]	condition not met

With those in mind, consider the next compound.
INPUT: Determine whether this compound shows EC50 lower than 10 µg/mL (ties excluded): O=C(O)CCC/C=C/[C@@H]1C=C[C@@H]2CCC[C@H]2[C@H]1/C=C/C=C/C(=O)NCCc1ccccc1
OUTPUT: condition not met

====

System: SK-OV-3
experimental.details: Cytotoxicity against human SKOV3 cells after 48 hrs by sulforhodamine B assay
Format: functional
stated.conditions: SK-OV-3, 48 h, read-out: ED50 (the source's name)
Each item that follows carries a reported EC50.
Answer format: numeric, µg/mL implied, no suffix.

Some molecules with known EC50 results, for comparison:
molecule	measurement.unit	EC50
O=C(O)CCC/C=C/C=C/[C@@H]1C=C[C@@H]2CCC[C@H]2[C@H]1/C=C/C=C/C(=O)NCCc1ccccc1	µg/mL	13.5
COC(=O)/C=C/C=C/[C@@H]1[C@@H]2CCC[C@H]2C=C[C@H]1/C=C/C=C/CCCC(=O)NCCC(=O)NCCc1c[nH]c2ccccc12 [APLIDIC ACID AMIDE A]	µg/mL	17.2

Attention now shifts to the item below.
INPUT: I have this molecule here, O=C(O)CCC/C=C/[C@@H]1C=C[C@@H]2CCC[C@H]2[C@H]1/C=C/C=C/C(=O)NCCc1ccccc1 , and I need its recorded EC50.
OUTPUT: 14.7
